Source: patent US20240270821A1

Biological target: hGLP-1R (Homo sapiens, UniProt P43220)
Sequence (P43220 24-463): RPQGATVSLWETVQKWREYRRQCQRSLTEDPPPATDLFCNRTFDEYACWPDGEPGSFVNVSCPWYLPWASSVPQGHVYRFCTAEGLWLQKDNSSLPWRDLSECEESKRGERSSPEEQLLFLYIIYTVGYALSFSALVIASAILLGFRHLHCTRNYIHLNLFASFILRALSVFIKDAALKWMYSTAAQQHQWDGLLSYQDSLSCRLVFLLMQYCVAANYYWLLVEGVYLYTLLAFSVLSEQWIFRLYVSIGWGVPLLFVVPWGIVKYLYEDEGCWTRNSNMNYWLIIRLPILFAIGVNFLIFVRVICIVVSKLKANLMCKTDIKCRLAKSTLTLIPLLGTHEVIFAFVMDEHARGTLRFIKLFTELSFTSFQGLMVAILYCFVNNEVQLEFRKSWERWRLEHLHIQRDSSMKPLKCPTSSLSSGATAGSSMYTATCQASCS
Assay: cell-based or functional assay
observable: log10 of cAMP Rel EC50 (1% HSA) (log10 of the value in nM)
Values reflect log10 of reported cAMP Rel EC50 (1% HSA) (nM).

Completed entries (count: 5):
binder	log10 of cAMP Rel EC50 (1% HSA)
YXQGTFTSDXSQXLDXKAQXAFIQXLIEXGPSSGEPPPSGGGE (not fully specified; non-natural residues, C18 diacid acylation, C-terminal amide; synthetic construct; SITE 2: note = 2-Aminoisobutyric Acid; SITE 10: note = 3-(4-Pyridyl)-L-alanine; SITE 13: note = alpha-methyl-leucine; SITE 16: note = L-ornithine; SITE 17: note = Lysine is chemically modified through conjugation of the epsilon-amino group of the Lysine side chain with D-Glutami) [Example 1131]	1.80
YXQGTFTSDXSQXLDKKAQXAFIEYLIEXGPSSGAPPPSGSE (acylated lysine γGlu-C18 diacid; non-natural residues; C-terminal amide; synthetic construct; SITE 2: note = 2-Aminoisobutyric Acid; SITE 10: note = 3-(4-Pyridyl)-L-alanine; SITE 13: note = alpha-methyl-leucine; SITE 17: note = Lysine is chemically modified through conjugation of the epsilon-amino group of the Lysine side chain with (D-Glutamic acid)2-(gamma-Glu)-CO-(CH2)) [Example 925]	2.85
YXQGTFTSDXSQXLDKKAQXAFIEYLLEAGPSSXAPPPSGT (possibly C-terminal amide; synthetic construct; SITE 2: note = 2-Aminoisobutyric Acid; SITE 10: note = 3-(4-Pyridyl)-L-alanine; SITE 13: note = alpha-methyl-leucine; SITE 17: note = Lysine is chemically modified through conjugation of the epsilon-amino group of the Lysine side chain with (2-[2-(2-Amino-ethoxy)-ethoxy]-acetyl)) [Example 824]	2.54
YXQGTFTSDXSKXLDKKAQXAFIEYLIEXGPSSGAPPPSGS (synthetic construct; SITE 2: note = 2-Aminoisobutyric Acid; SITE 10: note = 3-(4-Pyridyl)-L-alanine; SITE 13: note = alpha-methyl-leucine; SITE 17: note = Lysine is chemically modified through conjugation of the epsilon-amino group of the Lysine side chain with (2-[2-(2-Amino-ethoxy)-ethoxy]-acetyl)) [Example 801]	2.12
YXQGTFTSDXSQXLDXKAQXAFIQXLIEGGPSSGAPPPSGSEEE (Glu-γGlu-C18 diacid on Lys; non-natural residues; amide; synthetic construct; SITE 2: note = 2-Aminoisobutyric Acid; SITE 10: note = 3-(4-Pyridyl)-L-alanine; SITE 13: note = alpha-methyl-leucine; SITE 16: note = L-ornithine; SITE 17: note = Lysine is chemically modified through conjugation of the epsilon-amino group of the Lysine side chain with (Glu)-(ga)) [Example 1077]	2.61

Field: next binder
The binder listed as YXQGTXTSDXXIXLDXXAQXEFIEXLIEGGPSSGAPPPSGGGE (synthetic construct; SITE 2: note = 2-Aminoisobutyric Acid; SITE 6: note = alpha-methyl-2-fluoro-L-phenylalanine; SITE 10: note = 3-(4-Pyridyl)-L-alanine; SITE 11: note = alpha-methyl-L-serine; SITE 13: note = alpha-methyl-leucine; SITE 16: note = L-ornithine; SITE 17: note = Ornithine is chemically) [Example 1213] shows log10 of cAMP Rel EC50 (1% HSA) equal to 1.64
